Origin of values: the RNAGym collection of RNA variant scans (doi:10.1073/pnas.2313332121)

Measured polymerase ribozyme fitness (log ratio), listed per entry for reference.
B1: TPR t1 (parent)
chain: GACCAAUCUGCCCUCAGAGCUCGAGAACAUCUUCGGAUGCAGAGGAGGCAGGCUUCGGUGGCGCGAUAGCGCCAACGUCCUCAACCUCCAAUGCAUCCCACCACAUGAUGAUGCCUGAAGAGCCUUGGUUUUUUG

- Variants of: B1
- ASSAY DETAILS: polymerase ribozyme fitness, log enrichment relative to wild type (log ratio); higher = more active; in vitro selection for triplet polymerase activity
Reply briefly: the number, and no unit.

Report polymerase ribozyme fitness (log ratio), nothing else, for this variant: C73U U126A
-1.7

Using known records, supply polymerase ribozyme fitness (log ratio) for C49G A83G C124G
1.03
